Let's look at some molecules and their measured T/C.
Tested on: L1210 leukemia ip in BDF1 mice, survival T/C
Experiment description: NCI In Vivo Anticancer Drug Screen. Data for tumor model L1210 Leukemia (intraperitoneal) in B6D2F1 (BDF1) mice
Run parameters: endpoint: mean survival time; dose: 50.0 mg/kg/injection; schedule: Q04DX002 (ip); vehicle: saline with Tween-80; higher = longer survival
Inconclusive results and toxic doses are left out.

>>> value_measured("CCCCCCCCCCCCCCCCCCNC(=O)Nc1cccc(OC)c1")
"89 % of control"
>>> value_measured("CCOP(=O)(OCC)Oc1c(Cl)c(Cl)c(OC(=O)Nc2cc(Cl)ccc2Cl)c(Cl)c1Cl")
"97 % of control"
>>> value_measured("CC1CCCCN1Cc1ccccc1COC(=O)c1cccc(Cl)c1 (centres undefined)")
"91 % of control"

Task: Please list T/C recorded for the molecule O=c1oc(Cl)cc2oc(=O)n(-c3ccccc3)c(=O)c12
Result: 102 % of control

====

System: L1210 leukemia ip in BDF1 mice, survival T/C
Experiment description: NCI In Vivo Anticancer Drug Screen. Data for tumor model L1210 Leukemia (intraperitoneal) in B6D2F1 (BDF1) mice
Run parameters: endpoint: mean survival time; dose: 100.0 mg/kg/injection; schedule: Q04DX003 (ip); vehicle: saline with Tween-80; higher = longer survival
Toxic doses and inconclusive results are not listed.
Measured metric: T/C

Use the examples below as a reference point.
>>> value_measured("Cc1ncc(CO)c(/C=N/OCc2ccc(OCc3ccccc3)cc2)c1O")
"102 % of control"
>>> value_measured("CC(C)C(=O)Nc1ccc(S(=O)(=O)Cl)cc1")
"95 % of control"
>>> value_measured("O/N=C(\\c1ccccc1)C(c1ccccc1)C(Cl)(Cl)Cl (stereo unspecified)")
"86 % of control"
>>> value_measured("CC(=O)NC1CONC1=O (stereo unspecified)")
"98 % of control"

Read the next record carefully.
Task: Indicate the recorded T/C value for this compound: O=C(NC(CO)C(=O)OCc1ccccc1)OCc1ccccc1 (stereo unspecified)
Result: 98 % of control

====

Reported T/C values for the following compounds.
Test system: L1210 leukemia ip in BDF1 mice, survival T/C
Experiment description: NCI In Vivo Anticancer Drug Screen. Data for tumor model L1210 Leukemia (intraperitoneal) in B6D2F1 (BDF1) mice
Run parameters: endpoint: mean survival time; dose: 200.0 mg/kg/injection; schedule: Q01DX001 (ip); vehicle: Klucel (hydroxypropylcellulose) (HPC); higher = longer survival
Protocol: The antitumor activity of compounds was measured in mice bearing transplantable tumors. Survival or tumor size were measured and the results are expressed as the measurement made in the treated group (T) divided by the measurement made in the vehicle treated control group (C). The tumor model used in this assay is L1210 Leukemia (intraperitoneal) in B6D2F1 (BDF1) mice
Inconclusive results and toxic doses are left out.

Previously resolved entries follow.
>>> value_measured("CN(C(=O)C(=O)N(C)S(=O)(=O)c1ccccc1)S(=O)(=O)c1ccccc1")
"97 % of control"
>>> value_measured("CC(C)CCOc1ccc(C(N)=S)c2ccccc12")
"112 % of control"
>>> value_measured("CN(C)C=Nc1ccc(Cl)c2ccccc12")
"96 % of control"
>>> value_measured("CC(C)NC(C)C")
"101 % of control"
>>> value_measured("CCCCB1OCCCO1")
"88 % of control"

Task: Return T/C (reported value) for this compound: CC1CC(C#N)Nc2ccccc2N1 (configuration not stated)
Result: 104 % of control

Task: Fill in reported T/C for this entry: CN1CN(c2ccccc2)C2(CCN(Cc3nc4ccc(Cl)cc4[nH]3)CC2)C1=O
Result: 93 % of control

Task: Answer with the recorded T/C of c1ccc([C]([Hg][C](=C(c2ccccc2)c2ccccc2)c2ccccc2)=C(c2ccccc2)c2ccccc2)cc1 only.
Result: 90 % of control

Task: Note T/C for the compound shown: NC(=O)/C(=C\c1ccc([N+](=O)[O-])o1)c1ccccc1
Result: 93 % of control

Task: Read the entry CCOc1ccc(-n2c(=O)c(N=Nc3ccc(Cl)cc3)c(O)n(-c3ccc(C)cc3)c2=S)cc1 and write its reported T/C.
Result: 107 % of control

Task: Item CC1(C)Cc2cccc(C(=O)CCCN3CCC4(CC3)C(=O)NCN4c3ccccc3)c2O1 : provide T/C
Result: 93 % of control

Task: Give me measured T/C, please, for this compound: CC12OC1(C)C1(CO1)C1(C)OC1(C)C2=O (configuration not stated)
Result: 97 % of control

====

Tested on: L1210 leukemia ip in BDF1 mice, survival T/C
Experiment description: NCI In Vivo Anticancer Drug Screen. Data for tumor model L1210 Leukemia (intraperitoneal) in B6D2F1 (BDF1) mice
Run parameters: endpoint: mean survival time; dose: 25.0 mg/kg/injection; schedule: Q01DX009 (ip); vehicle: Klucel (hydroxypropylcellulose) (HPC); higher = longer survival
Inconclusive results and toxic doses are left out.
Listed here: items and their measured T/C.

>>> value_measured("S=C(NCc1cccc(Cl)c1)Nc1ccccc1")
"98 % of control"
>>> value_measured("Cc1cccc(Cl)c1NC(=O)Nc1cc([N+](=O)[O-])ccc1O")
"91 % of control"
>>> value_measured("O=C1c2ccccc2C(=O)N1Cc1cccc([N+](=O)[O-])c1")
"87 % of control"
>>> value_measured("CCC(=O)Oc1ccccc1C(=O)O")
"98 % of control"
>>> value_measured("CCC(CCN(CC=C(C)C)CC=C(C)C)(C(N)=O)c1cccc2ccccc12 (stereo not given)")
"96 % of control"
>>> value_measured("O=C(c1cccc([N+](=O)[O-])c1)c1[nH]c2sc3c(c2c1O)CCCC3")
"89 % of control"

Task: Return the recorded T/C value; entry: CN=NNc1ccccc1
Result: 97 % of control

Task: Answer with reported T/C of O=[N+]([O-])c1ccc2[nH]c(=S)sc2c1
Result: 95 % of control

Task: // fetch T/C given entry O=C(NCCBr)Nc1ccccc1
Result: 108 % of control

Task: State its T/C for this compound: O=C(Nc1ccccc1)Oc1c(Cl)cc(Cl)c(Cl)c1[N+](=O)[O-]
Result: 100 % of control

====

The following compounds are shown together with reported T/C values.
Test system: L1210 leukemia ip in BDF1 mice, survival T/C
Experiment description: NCI In Vivo Anticancer Drug Screen. Data for tumor model L1210 Leukemia (intraperitoneal) in B6D2F1 (BDF1) mice
Run parameters: endpoint: mean survival time; dose: 400.0 mg/kg/injection; schedule: Q01DX001 (ip); vehicle: acetone; higher = longer survival
Experimental: The antitumor activity of compounds was measured in mice bearing transplantable tumors. Survival or tumor size were measured and the results are expressed as the measurement made in the treated group (T) divided by the measurement made in the vehicle treated control group (C). The tumor model used in this assay is L1210 Leukemia (intraperitoneal) in B6D2F1 (BDF1) mice
Inconclusive results and toxic doses are left out.

>>> value_measured("O=C(Nc1ccc(C(=O)O)c(O)c1)c1ccccc1")
"97 % of control"
>>> value_measured("O=C1Nc2ccccc2C1=Nc1cccc2ncccc12")
"100 % of control"

Task: Give T/C for this entry on L1210 leukemia ip in BDF1 mice, survival T/C: FC(F)(F)C(F)(F)C1=NS1(F)C(F)(C(F)(F)F)C(F)(F)F (centres undefined)
Result: 97 % of control

Task: Lab note: L1210 leukemia ip in BDF1 mice, survival T/C assay, enter T/C for COCOCP(=O)(OC)OC here
Result: 95 % of control

====

System: L1210 leukemia ip in BDF1 mice, survival T/C
Experiment description: NCI In Vivo Anticancer Drug Screen. Data for tumor model L1210 Leukemia (intraperitoneal) in B6D2F1 (BDF1) mice
Run parameters: endpoint: mean survival time; dose: 100.0 mg/kg/injection; schedule: Q01DX009 (ip); vehicle: saline sonified; higher = longer survival
Inconclusive results and toxic doses are left out.
Measured metric: T/C

Answered examples (2):
>>> value_measured("c1ccc2cc(SCCCN3CCOCC3)ccc2c1")
"97 % of control"
>>> value_measured("CCOC(=O)C1(C)CCCC1=O (stereo unspecified)")
"94 % of control"

Task: Please give measured T/C of the following entry: CCNC(C)(C)C(SSS)c1cccs1 (stereo unspecified)
Result: 96 % of control

Task: Assign T/C to the following record: N#Cc1cnn2c(=O)[nH]cnc12
Result: 95 % of control

Task: Provide one value: measured T/C of ClC1=C(Br)C(Br)(Br)C(=C(Br)Br)C1(Br)Br
Result: 96 % of control

Task: Note down T/C recorded for CC(=O)Nc1cccc(Cl)c1C
Result: 97 % of control

====

Tested on: L1210 leukemia ip in BDF1 mice, survival T/C
Experiment description: NCI In Vivo Anticancer Drug Screen. Data for tumor model L1210 Leukemia (intraperitoneal) in B6D2F1 (BDF1) mice
Run parameters: endpoint: mean survival time; dose: 400.0 mg/kg/injection; schedule: Q04DX002 (ip); vehicle: saline with Tween-80; higher = longer survival
Procedure: The antitumor activity of compounds was measured in mice bearing transplantable tumors. Survival or tumor size were measured and the results are expressed as the measurement made in the treated group (T) divided by the measurement made in the vehicle treated control group (C). The tumor model used in this assay is L1210 Leukemia (intraperitoneal) in B6D2F1 (BDF1) mice
Toxic doses and inconclusive results are not listed.
// values below are reported T/C

Below, 6 compounds whose answers are already recorded.
>>> value_measured("OC/C=[CH]\\[Sn]([c]1ccccc1)([c]1ccccc1)[c]1ccccc1")
"119 % of control"
>>> value_measured("O=C(Nc1ccc(Cl)cc1[N+](=O)[O-])Nc1ccccc1C(F)(F)F")
"91 % of control"
>>> value_measured("O=C(CC(=O)c1ccccc1)c1ccccc1")
"94 % of control"
>>> value_measured("CSc1ccc(NC(=O)Oc2cc3ccccc3cc2C(=O)Nc2ccccc2)cc1")
"95 % of control"
>>> value_measured("CC(C)(C)c1ccc(/C=[N+](\\[O-])C(C)(C)C)c(C(C)(C)C)c1O")
"95 % of control"
>>> value_measured("N#CCCN(CCCN1CCOCC1)C(=S)Nc1ccc(Cl)cc1")
"101 % of control"

Task: Please supply the value of reported T/C for the item CSc1ccc(NC(=O)OCC2CC3C=CC2C3)cc1 (stereo unspecified)
Result: 111 % of control

Task: Look up T/C of CCCCc1cn(S(=O)(=O)c2ccc(C)cc2)nn1 and report it.
Result: 106 % of control

Task: Fill in T/C for record COc1cc(/C=N\NC(=S)Nc2ccc(S(=O)(=O)N3CCCCC3)cc2)cc(OC)c1OC
Result: 90 % of control

Task: Kindly indicate its recorded T/C. Item: [CH3][Sn]([c]1ccccc1)([c]1ccccc1)[c]1ccccc1
Result: 103 % of control

Task: Using the record for O=P(CCc1ccccc1)(OCCCl)OCCCl , state its measured T/C.
Result: 92 % of control
